Each entry below lists one item and its recorded pest or weed control at 1000 g/ha value.
- Test system: Eleusine indica (ELEIN)
- Protocol Summary: Post-emergence efficacy, glasshouse spray test
- Type: in vivo
- Experimental Context: Eleusine indica, post-emergence, 312 h; application rate 1000 g/Ha; evaluated after 13 days; read-out: Control of weed species ELEIN after post-emergence application (100=total damage to plant; 0=no damage to plant)
Just the number in %, nothing appended.

Below, 10 molecules whose answers are already recorded.
{"Molecule": "CONC(=O)C[n+]1cc(C)c2cc(C)cc(C)c2n1 [Compound A5]", "pest or weed control at 1000 g/ha, %": 10}
{"Molecule": "O=S(=O)([O-])CC[n+]1cc(-c2ccccc2)c2ccccc2n1 [Compound A51]", "pest or weed control at 1000 g/ha, %": 30}
{"Molecule": "OCCC[n+]1ccc2ccccc2n1 [Compound A121]", "pest or weed control at 1000 g/ha, %": 0}
{"Molecule": "Cc1cc2ccccc2n[n+]1CCS(=O)(=O)[O-] [Compound A77]", "pest or weed control at 1000 g/ha, %": 90}
{"Molecule": "O=S(=O)([O-])C[n+]1ccc2ccccc2n1 [Compound A48, cinnolin-2-ium-2-ylmethanesulfonate]", "pest or weed control at 1000 g/ha, %": 90}
{"Molecule": "COC(=O)C[n+]1cc(C)c2cc(C)ccc2n1 [Compound A9]", "pest or weed control at 1000 g/ha, %": 70}
{"Molecule": "Cc1cccc2cc[n+](CC(=O)O)nc12 [Compound A59]", "pest or weed control at 1000 g/ha, %": 10}
{"Molecule": "O=P([O-])(O)CC[n+]1ccc2ccccc2n1 [Compound A71]", "pest or weed control at 1000 g/ha, %": 70}
{"Molecule": "O=S(=O)([O-])CC[n+]1ccc2ccc(Cl)cc2n1 [Compound A94]", "pest or weed control at 1000 g/ha, %": 90}
{"Molecule": "O=S(=O)([O-])CC[n+]1ccc2c(F)cccc2n1 [Compound A81]", "pest or weed control at 1000 g/ha, %": 30}

Input: Under Eleusine indica (ELEIN), report pest or weed control at 1000 g/ha for O=S(=O)([O-])CC[n+]1ccc2cccc(F)c2n1 [Compound A84]
Output: 70

Input: Under Eleusine indica (ELEIN), report pest or weed control at 1000 g/ha for Cc1c[n+](CC(=O)[O-])nc2c(C)cccc12 [Compound A8]
Output: 50

Input: Under Eleusine indica (ELEIN), report pest or weed control at 1000 g/ha for COC(=O)C[n+]1cc(C)c2cc(C)cc(C)c2n1 [Compound A3]
Output: 0

Input: Under Eleusine indica (ELEIN), report pest or weed control at 1000 g/ha for O=P(O)(O)C[n+]1ccc2ccccc2n1 [Compound A73]
Output: 10

Input: Under Eleusine indica (ELEIN), report pest or weed control at 1000 g/ha for Cc1cc(C)c2n[n+](CC(=O)[O-])cc(C)c2c1 [Compound A4]
Output: 20

Input: Under Eleusine indica (ELEIN), report pest or weed control at 1000 g/ha for C[C@H](CNS(=O)(=O)[O-])[n+]1ccc2ccccc2n1 [Compound A49]
Output: 90

Input: Under Eleusine indica (ELEIN), report pest or weed control at 1000 g/ha for O=S(=O)([O-])CC[n+]1ccc2cccc(Cl)c2n1 [Compound A22]
Output: 70

Input: Under Eleusine indica (ELEIN), report pest or weed control at 1000 g/ha for CS(=O)(=O)[N-]C(=O)CCC[n+]1ccc2ccccc2n1 [Compound A30]
Output: 20

Input: Under Eleusine indica (ELEIN), report pest or weed control at 1000 g/ha for Cc1ccc2n[n+](CCS(=O)(=O)[O-])ccc2c1 [Compound A32]
Output: 90
